# test-method-notes: Pharmacokinetic parameters after intravenous administration
# Assay type: in vivo, rat
# condition-summary: plasma; intravenous administration, female rat; read-out: terminal half-life t1/2 (converted)
metric: half-life (h)
Note: unit h is implicit; provide only the numeric part.

query: Given the compound COCCNC(=O)c1ccc2nn(CC3CCN(C(=O)c4ccc(Oc5ccc(C(F)(F)F)cc5)cc4)CC3)cc2c1C [Example 17] , what is its reported half-life?
result: 2.5

----------
# system-under-test: EP4 subtype of the human PGE2 receptor (Homo sapiens, UniProt P35408)
# Sequence (P35408 whole entry): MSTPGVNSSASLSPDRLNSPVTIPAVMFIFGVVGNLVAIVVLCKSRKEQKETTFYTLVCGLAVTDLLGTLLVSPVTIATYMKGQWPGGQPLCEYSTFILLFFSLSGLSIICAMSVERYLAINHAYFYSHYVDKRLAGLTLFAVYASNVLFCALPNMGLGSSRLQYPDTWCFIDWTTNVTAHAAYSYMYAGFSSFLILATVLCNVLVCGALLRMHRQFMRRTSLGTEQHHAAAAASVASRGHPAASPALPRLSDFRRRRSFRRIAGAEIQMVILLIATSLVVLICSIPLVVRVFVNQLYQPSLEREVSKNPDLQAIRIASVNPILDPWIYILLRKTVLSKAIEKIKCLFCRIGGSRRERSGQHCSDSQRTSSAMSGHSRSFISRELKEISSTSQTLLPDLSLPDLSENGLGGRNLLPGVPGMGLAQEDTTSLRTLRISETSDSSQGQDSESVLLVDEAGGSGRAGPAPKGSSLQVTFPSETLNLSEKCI
# test-method-notes: cAMP antagonism test on the human EP4 receptor (HTRF cAMP detection)
# Type: cell-based
# condition-summary: selectivity towards hEP4, IC50 measured by cAMP antagonism test
metric: Selectivity hEP2/hEP4

# count of solved cases: 5
sample-smiles	result
COCCNC(=O)c1ccc2nn(CC3CCN(C(=O)c4ccc(Oc5nccc(C(F)(F)F)n5)cc4)CC3)cc2c1C	xxx (xxx > 100)
COCCNC(=O)c1ccc2nn(CC3CCN(C(=O)c4cc(-c5ccccc5)no4)CC3)cc2c1C	xxx (xxx > 100)
COCCNC(=O)c1ccc2nn(CC3CCN(C(=O)c4ccc(-c5ccc(F)cc5)cc4)CC3)cc2c1OCC(F)(F)F	xxx (xxx > 100)
COCCNC(=O)c1cc2cn(CC3CN(C(=O)c4ccc(Cl)c(C(F)(F)F)c4)C3)nc2cc1C	xxx (xxx > 100)
Cc1c(C(=O)NCCOC(C)(C)C)ccc2nn(CC3CN(C(=O)c4ccc(Cl)cc4)C3)cc12	xxx (xxx > 100)

query: Given the molecule Cc1c(C(=O)NCCSC(F)(F)F)ccc2nn(CC3CN(C(=O)c4ccc(Cl)cc4)C3)cc12 , what is its reported Selectivity hEP2/hEP4?
result: xxx (xxx > 100)

query: Given the molecule COCCNC(=O)c1ccc2nn(CC3CCN(C(=O)c4ccc(C(C)(C)C)cc4)CC3)cc2c1C , what is its reported Selectivity hEP2/hEP4?
result: xxx (xxx > 100)
